Recorded values, source ChEMBL document CHEMBL4359826.

- experiment-notes: Agonist activity at MOR/CB1R/CB2R receptor in Wistar rat brain membranes after 60 mins by [35S]-GTPgammaS binding assay
- Type: cell membranes
Binary call on EC50 with cut-off 300 nM: strictly below means t, and equality or higher means f.

Is the reported EC50 for C[C@@H](NC(=O)[C@@H](N)Cc1ccc(O)cc1)C(=O)NCC(=O)N[C@@H](Cc1ccccc1)C(=O)NCCCC(=O)NCCCCCn1cc(C(=O)c2cccc3ccccc23)c2ccccc21 strictly below 300 nM? t

Is EC50 strictly under 300 nM for the entry COc1ccc2c3c1O[C@H]1/C(=N\OCC(=O)NCCCOCCOCCOCCCN)CC[C@@]4(O)[C@@H](C2)N(C)CC[C@]314 ? t

is_below(EC50, 300 nM) for C[C@@H](NC(=O)[C@@H](N)Cc1ccc(O)cc1)C(=O)NCC(=O)N[C@@H](Cc1ccccc1)C(=O)NCCC(=O)NCCCCCn1cc(C(=O)c2cccc3ccccc23)c2ccccc21 ? t

Does the reported EC50 of COc1ccc2c3c1O[C@H]1/C(=N\OCC(=O)NCCN)CC[C@@]4(O)[C@@H](C2)N(C)CC[C@]314 stay below 300 nM? f

Regarding COc1ccc2c3c1O[C@H]1/C(=N\OCC(=O)O)CC[C@@]4(O)[C@@H](C2)N(C)CC[C@]314 , kindly confirm whether its EC50 is beneath 300 nM. t

EC50 strictly < 300 nM for this compound? COc1ccc2c3c1O[C@H]1/C(=N\OCC(=O)NCCCCCCNC(=O)CCCCCn4cc(C(=O)c5cccc6ccccc56)c5ccccc54)CC[C@@]4(O)[C@@H](C2)N(C)CC[C@]314 t

Would you kindly verify if EC50 of CC(=O)NCCCCCn1cc(C(=O)c2cccc3ccccc23)c2ccccc21 is strictly less than 300 nM? f

A record lists C[C@@H](NC(=O)[C@@H](N)Cc1ccc(O)cc1)C(=O)NCC(=O)N[C@@H](Cc1ccccc1)C(N)=O . Is its EC50 below 300 nM? t

Please let me know if CCCCCn1cc(C(=O)c2cccc3ccccc23)c2ccccc21 shows EC50 below 300 nM. t

Regarding C[C@@H](NC(=O)[C@@H](N)Cc1ccc(O)cc1)C(=O)NCC(=O)N[C@@H](Cc1ccccc1)C(=O)NCC(=O)NCCCCCn1cc(C(=O)c2cccc3ccccc23)c2ccccc21 , kindly confirm whether its EC50 is beneath 300 nM. t

Does C[C@@H](NC(=O)[C@@H](N)Cc1ccc(O)cc1)C(=O)NCC(=O)N[C@@H](Cc1ccccc1)C(=O)NCCCCCn1cc(C(=O)c2cccc3ccccc23)c2ccccc21 have EC50 strictly under 300 nM? f

Does the reported EC50 of the following compound sit strictly below 300 nM? O=C(O)CCCCCn1cc(C(=O)c2cccc3ccccc23)c2ccccc21 f
